Molecular target: Human GPR40 (Homo sapiens (Human))
Sequence (O14842 whole entry): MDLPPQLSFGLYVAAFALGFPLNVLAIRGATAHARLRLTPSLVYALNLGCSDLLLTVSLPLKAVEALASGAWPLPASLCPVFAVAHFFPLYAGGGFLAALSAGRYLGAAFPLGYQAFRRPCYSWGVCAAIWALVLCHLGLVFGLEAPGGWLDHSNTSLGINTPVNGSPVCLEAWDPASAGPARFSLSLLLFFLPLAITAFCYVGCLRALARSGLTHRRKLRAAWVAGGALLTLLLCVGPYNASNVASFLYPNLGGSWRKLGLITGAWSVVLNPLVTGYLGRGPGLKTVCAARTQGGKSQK
Assay: Inositol Phosphate Turnover (IP1) Assay 1, HEK cells stably expressing human GPR40, 3H-inositol SPA
Format: cell-based
Details: HEK cells stably expressing human GPR40, 96-well
MEASUREMENT NAME: EC50 (nM)

# annotated cases, reported EC50 shown
COc1ccc(OC)c([C@H]2C[C@@H]2COc2cccc([C@H](C3CC3)[C@H](C)C(=O)O)c2)c1 | 188
C[C@H](C(=O)O)[C@H](c1cccc(OCC2CC(Oc3cccc(-c4ccccc4)c3)C2)c1)C1CC1 (single isomer, unassigned) [Example 121] | 561

[a] COc1cccc(C2CC2COc2cccc([C@@H](CC(=O)O)C3CC3)c2)c1 (single isomer, unassigned) [Example 62]
[b] C[C@H](C(=O)O)[C@H](c1cccc(OCC2CC(Oc3cccc(O)c3)C2)c1)C1CC1 (single isomer, unassigned) [Example 122]
[c] COc1cc(C2CC(COc3cccc([C@H](C4CC4)[C@H](C)C(=O)O)c3)C2)ccn1 (single isomer, unassigned) [Example 89]
[d] C[C@H](C(=O)O)[C@H](c1cccc(OCC2CC(Oc3ccc(OC(F)F)nc3)C2)c1)C1CC1 (stereo partly drawn)
Please produce an ascending ranking of these molecules based on EC50. Lab note: final answer is the ordered label list.
c, a, b, d
(c: 61 nM, a: 166 nM, b: 597 nM, d: 1390 nM)
